melting point: recorded values
outcome measure: melting point

- compound: "N#CC1CN1C(=O)NC(=O)COc1ccccc1 (stereo not drawn)"
  outcome measure: "melting point"
  test result: "134 to 136 °C"
- compound: "O=C(CC1CCCC1)NC[C@H]1CN(c2ccc3c(c2)CCCc2cnoc2-3)C(=O)O1"
  outcome measure: "melting point"
  test result: "193 to 195 °C"
- compound: "CC(CNC(=O)CN1C(=O)CCC1C)N1CCCCC1 (stereo not drawn)"
  outcome measure: "melting point"
  test result: "111 to 112 °C"
- compound: "O=S(=O)(Nc1ccc(-c2n[nH]c3c2Cc2ccccc2-3)cc1)c1ccccc1"
  outcome measure: "melting point"
  test result: "286 to 288 °C"
- compound: "CCc1cc(=O)c(C(=O)c2ccccc2)c(C)[nH]1"
  outcome measure: "melting point"
  test result: "169 to 170 °C"
- compound: "COc1cc(-n2cc(C(=O)O)c(=O)c3cc(F)c(F)c(Cl)c32)ccc1F"
  outcome measure: "melting point"
  test result: "> 280 °C"
- compound: "CCN(CC)CCNC(=O)c1c[nH]c2ccc(I)cc2c1=O"
  outcome measure: "melting point"
  test result: "234 to 236 °C"
- compound: "O=C(O)c1ccc2occ(-c3ccccc3)c2c1"
  outcome measure: "melting point"
  test result: "205 to 209 °C"
- compound: "O=C(c1ccccc1Cl)c1cc(Cl)ccc1C(=O)C(Br)CN1C(=O)c2ccccc2C1=O (stereo not drawn)"
  outcome measure: "melting point"
  test result: "178 to 179 °C"
- compound: "N#Cc1ccc(Nn2ccnc2)cc1"
  outcome measure: "melting point"
  test result: "162 °C"
- compound: "COc1ccc(-c2ccncc2)cc1-c1cccc([N+](=O)[O-])c1"
  outcome measure: "melting point"
  test result: "145 to 150 °C"
- compound: "CC(C)(C)OC(=O)NCCOc1noc2cccc(C#N)c12"
  outcome measure: "melting point"
  test result: "116 to 117 °C"
- compound: "CC(=O)N1C(C)(C)CC(Oc2nc(OC3CC(C)(C)N(O)C(C)(C)C3)nc(N3C(C)(C)CCCC3(C)C)n2)CC1(C)C"
  outcome measure: "melting point"
  test result: "175 to 176 °C"
- compound: "CN1C(=O)C(NC(=O)Nc2ccccc2Cl)N=C(c2ccccc2)c2ccccc21 (stereo not drawn)"
  outcome measure: "melting point"
  test result: "212 to 214 °C"
- compound: "N#Cc1cc2c(s1)-c1ccccc1OC2c1ccccc1 (stereo not drawn)"
  outcome measure: "melting point"
  test result: "138 to 140 °C"
- compound: "CCCCCCc1cc2c(s1)-n1c(C)nnc1C(C)N=C2c1ccccc1C (stereo not drawn)"
  outcome measure: "melting point"
  test result: "83 to 85 °C"
- compound: "Cc1cc(C)c(C(CO)c2ccc(C(C)C)cc2)c(O)c1C (stereo not drawn)"
  outcome measure: "melting point"
  test result: "101 to 102 °C"
- compound: "CC1CN(c2ccccn2)N=C1N (stereo not drawn)"
  outcome measure: "melting point"
  test result: "149 to 151 °C"
- compound: "Cc1nc2cc(-c3ccc(C=C4SC(=O)NC4=O)cc3)cc(C34CC5CC(CC(C5)C3)C4)c2o1"
  outcome measure: "melting point"
  test result: "354 to 360 °C"
- compound: "CCCCCOc1ccc(-c2ccc(CC[C@H]3CC[C@H](CCC)CC3)c(F)c2F)cc1"
  outcome measure: "melting point"
  test result: "27 °C"
- compound: "OC1(c2cc3ccccc3s2)CCN(CCC2COc3ccccc3O2)CC1 (stereo not drawn)"
  outcome measure: "melting point"
  test result: "175 to 178 °C"
- compound: "CC(CO)(CO)NS(=O)(=O)c1cccc(C#Cc2cnn3c(C(F)F)cc(-c4ccc(C(F)(F)F)cc4)nc23)c1"
  outcome measure: "melting point"
  test result: "172 to 174 °C"
- compound: "COC(=O)c1c(-c2cccc([N+](=O)[O-])c2)cc(-c2ccccc2)nc1C"
  outcome measure: "melting point"
  test result: "127 to 129 °C"

###

melting point: recorded values
outcome measure: melting point (°C)

- compound: "COC(=O)CC(Nc1ccccc1)c1ccccc1 (stereo not given)"
  test result: 110
- compound: "O=C(Nc1ccc(C(=O)N2C[C@@H]3CCCN3c3ccccc32)cc1)c1ccccc1-c1ccccc1"
  test result: 200

###

melting point: recorded values
outcome measure: melting point

- compound: "COC(=O)Cc1cc2c(cc1CC(=O)NCCc1cccc(OC)c1)OCO2"
  test result: "81 to 83 °C"
- compound: "COc1ccc(CS(=O)C(C)(C)C)cc1 (centres undefined)"
  test result: "124 to 126 °C"
- compound: "CNc1ncc(S(=O)(=O)NC(=O)NC(C)C)c(Nc2cccc(C)c2)n1"
  test result: "206 to 207 °C"
- compound: "N#CC(Cc1ccco1)(Cn1cncn1)c1ccc(Cl)cc1 (centres undefined)"
  test result: "112 to 114 °C"
- compound: "N=C1c2nc[nH]c2N(Cc2ccc(Cl)cc2)C2=NCCN12"
  test result: "296 to 299 °C"
- compound: "O=Cc1ccc(-c2nn(Cc3ccccc3)c3ccccc23)o1"
  test result: "108 °C"
- compound: "CNn1cc(C(=O)O)c(=O)c2cc3c(cc21)OCO3"
  test result: "> 300 °C"
- compound: "O=C(O)CCC/C=C/c1nn(-c2ccc([N+](=O)[O-])cc2)c2c1CCC2"
  test result: "163 to 164 °C"
- compound: "CCSCC12CCC(=O)C=C1CCC1C3CC(CC)C(=O)C3(C)CCC12 (centres undefined)"
  test result: "73 °C"
- compound: "Nc1ccc(-c2cc(OCC(=O)N3CCOCC3)c3ccccc3n2)cc1"
  test result: "174 °C"
- compound: "CCCCCCN(C)c1ccc(C=C2SC(=S)N(CC(=O)NS(C)(=O)=O)C2=O)cc1"
  test result: "227 to 230 °C"
- compound: "N#CCCCCC(=NO)c1ccc(Br)cc1"
  test result: "86.5 to 88 °C"
- compound: "COC1CC2(C)C(CCC3C4CC(C)=C(C(C)=O)C4(C)CC(=O)C32)CC1O (centres undefined)"
  test result: "184 to 186 °C"
- compound: "COC(=O)C(CS)NC(=O)CNC(=O)CS (centres undefined)"
  test result: "67 to 69 °C"
- compound: "CCOC(=O)CSC(C)=NO"
  test result: "90 to 92 °C"
- compound: "C[C@@H]1N(c2ccc(C#N)c(Cl)c2)C(=O)C[C@]1(C)O"
  test result: "93 to 99 °C"
- compound: "O=C1CCC(N2Cc3cc(CNC(=O)Nc4cccc(Oc5ccccc5)c4)ccc3C2=O)C(=O)N1 (centres undefined)"
  test result: "224 to 226 °C"
- compound: "CC(=O)NC(C)(C)c1ccc(CN2CCN(c3ccc(F)cc3)CC2)cc1"
  test result: "104 to 106 °C"
- compound: "Cn1nccc1OCc1c(S(C)(=O)=O)ccc(C(=O)O)c1Cl"
  test result: "197 °C"

###

melting point: recorded values

- molecule: "COc1cc2c(cc1OCc1ccccc1)CCNC2c1ccccc1 (stereo not drawn)"
  melting point: "118 to 119 °C"
- molecule: "CC(C)(C)C(=O)Oc1ccc(C(O)c2ccc(OC(=O)C(C)(C)C)cc2)cc1"
  melting point: "148 to 152 °C"
- molecule: "CCOc1ccc(-c2cncn2-c2ccc(S(=O)(=O)NC(C)(C)C)cc2)cc1"
  melting point: "215 °C"
- molecule: "NC(=S)c1ccc(Br)cc1"
  melting point: "142 to 144 °C"
- molecule: "CCCCC1=NC2(CCCC2)C(=O)N1Cc1ccc(-c2ccccc2S(=O)(=O)Nc2onc(C)c2C)c(CCC(C)C)c1"
  melting point: "50 to 53 °C"
- molecule: "COc1ccc(NN=C(C)C)cc1"
  melting point: "163 to 164 °C"
- molecule: "O=c1nc(-c2cccc(CN3CCC(O)(c4ccc(Cl)cc4)CC3)n2)sc2ccccc12"
  melting point: "151 to 153 °C"
- molecule: "CCOc1cc(C)cc(C)c1C"
  melting point: "93 to 95 °C"
- molecule: "C#CCOc1cc(-n2nc3n(c2=O)CCCN3)c(F)cc1Cl"
  melting point: "172 to 174 °C"
- molecule: "CCc1ccc(C)cc1-n1cncc1C(=O)OC"
  melting point: "56 to 57 °C"
- molecule: "Nc1sc2c(c1C(=O)c1ccc(Cl)cc1)CCC(Cc1ccccc1)C2 (stereo not drawn)"
  melting point: "60 to 62 °C"
- molecule: "Fc1cccc(CNC(=S)N2CCc3c([nH]c4ccccc34)C2c2ccc3c(c2)OCO3)c1 (stereo not drawn)"
  melting point: "179 to 181 °C"
- molecule: "NS(=O)(=O)c1ccc(-c2cnn(CC=C(Cl)Cl)c(=O)c2-c2ccc(F)cc2)cc1"
  melting point: "184 to 185 °C"
- molecule: "O=C1CCC(c2ccccc2)(c2ccccc2)C2CN(C(Cc3ccccc3)=NCc3ccc(Cl)cc3)CC12 (stereo not drawn)"
  melting point: "198 °C"
- molecule: "CCN(CC)CC1(C(F)(F)F)c2cc(Cl)ccc2Nc2ncccc21 (stereo not drawn)"
  melting point: "115 to 117 °C"
- molecule: "Cn1ccc(=O)c(OCc2ccccc2)c1C(O)c1ccccn1 (stereo not drawn)"
  melting point: "202 to 204 °C"
- molecule: "CCCCCCCC=CCCCCCCCCC(=O)OCC(O)COC(=O)CCCCCCCC=CCCCCCCCC (stereo not drawn)"
  melting point: "20 to 22 °C"
- molecule: "Cc1cn(-c2cc(NC(=O)c3cccc(Nc4nccc(-c5cccnc5)n4)c3)cc(C(F)(F)F)c2)cn1"
  melting point: "264 to 266 °C"
- molecule: "CC1(C)CC(OC(=O)c2ccccc2)CC(C)(C)N1C#N"
  melting point: "150 to 152 °C"
- molecule: "Cc1cc(S(=O)(=O)N2CC(C)CC(C)C2)ccc1[N+](=O)[O-] (stereo not drawn)"
  melting point: "133 to 138 °C"
- molecule: "CN(C)CCC(=O)n1cc(-c2ccccc2)c2ccccc21"
  melting point: "137 to 138 °C"
- molecule: "CC1CC(=O)NN=C1c1ccc(NC(=NC#N)NCc2ccccc2)cc1 (stereo not drawn)"
  melting point: "228 to 229 °C"
- molecule: "CC(C(=O)O)c1cccc(S(=O)(=O)c2ccccc2Cl)c1O (stereo not drawn)"
  melting point: "180 to 181 °C"
